Every entry's value here was drawn from patent US7332513B2.

As shown below, each of these compounds has a reported cGMP Post-infusion value.
- Tested on: c-GMP in slices of thoracic aorta of rats
- method summary: Cyclic-GMP measurement in aortic rat tissue (radioimmunoassay)
- Type: cell-based
- applied conditions: rat aorta, post-infusion (repeated treatment)

[
  {
    "substance smiles": "Cc1nc(Nc2cccc3ccccc23)sc1CCO[N+](=O)[O-]",
    "cGMP Post-infusion, pmol/g tissue": 115
  },
  {
    "substance smiles": "Cc1nc(N(C)C)sc1CCO[N+](=O)[O-]",
    "cGMP Post-infusion, pmol/g tissue": 123
  },
  {
    "substance smiles": "Cc1nc(-c2ccccc2)sc1CCO[N+](=O)[O-]",
    "cGMP Post-infusion, pmol/g tissue": 136
  },
  {
    "substance smiles": "CCc1nc(C)c(CCO[N+](=O)[O-])s1",
    "cGMP Post-infusion, pmol/g tissue": 140
  },
  {
    "substance smiles": "CNc1cncc(-c2nc(C)c(CCO[N+](=O)[O-])s2)n1",
    "cGMP Post-infusion, pmol/g tissue": 112
  },
  {
    "substance smiles": "Cc1nc(-c2cccnc2)sc1CCO[N+](=O)[O-]",
    "cGMP Post-infusion, pmol/g tissue": 112
  },
  {
    "substance smiles": "Cc1nc(C)c(CCO[N+](=O)[O-])s1",
    "cGMP Post-infusion, pmol/g tissue": 118
  }
]
